Here, each record is paired with measured max response, negative = inhibition data.
Target: D(3) dopamine receptor (Homo sapiens)
Assay: qHTS of D3 Dopamine Receptor Antagonist: qHTS; note: % is set by controls: 0 for no effect and ±100 for the full control effect
Details: D3R cells, DiscoveRx beta-arrestin luminescence, antagonist mode; active compounds read low
Hit rate of the full screen: of about 360,000 compounds, about 9,100 (2.5%) were called active. Not shown: some 4% with an inconclusive outcome. The sample holds actives, similar compounds and a random draw of the others, so the mix is not that of the screen.

Study these solved cases before continuing.
INSERT INTO results (compound, result) VALUES
  ('CC1CCCCN1S(=O)(=O)c1ccc(C(=O)Nc2nnc(-c3cccs3)o2)cc1 (configuration not stated)', '-63.3% (active)'),
  ('Cc1ccc(S(=O)(=O)NC(=O)N2CCCN(Cc3ccc(F)cc3)CC2)cc1', '-51.3% (active)'),
  ('COc1ccc(C(=O)N2CCCCC2c2cc(C(=O)Nc3ccccc3)no2)cc1 (configuration not stated)', '-19.9% (inactive)');

**Query** Specify max response, negative = inhibition for COc1ncnc2c1ncn2CCCNCCN1CCOCC1 and stop.
**Result** 20.7% (inactive)

**Query** Please give the documented max response, negative = inhibition of COc1cccc(CNc2nc(NCc3ccccc3OC)nc3ccsc23)c1
**Result** 31.6% (inactive)

**Query** Identify measured max response, negative = inhibition corresponding to CCOC(=O)C1(C)CCCN(C(=O)c2ccc(N(C)C)cc2)C1 (configuration not stated)
**Result** 3.97% (inactive)

Where do the numbers come from? From PubChem BioAssay AID652054.
